Tested on: HSkMC
assayText: cytotoxicity call (relative viability < 0.9)
conditionLabel: 10 µM
In all, about 39,000 compounds went through this assay and about 1,500 (3.8%) were called active. The entries come from a sample that favours actives as a whole.
Select the matching outcome among active, inactive

chemicalString	group
CC(C)(C)c1cc(NC(=O)Nc2ccc(-c3cn4c(n3)sc3cc(OCCN5CCOCC5)ccc34)cc2)no1	active
COc1cc(OC)cc(C(=O)Nc2nc(-c3ccc4c(c3)CCN4C(=O)CN3CCOCC3)cs2)c1	inactive
Cc1noc(C)c1S(=O)(=O)N(C)C[C@@H]1Oc2c(NC(=O)c3cnccn3)cccc2C(=O)N([C@H](C)CO)C[C@@H]1C	inactive
C[C@H]1CCCCO[C@@H](CN(C)Cc2ccc3c(c2)OCO3)[C@@H](C)CN([C@@H](C)CO)C(=O)c2cc(NC(=O)Nc3cccc4ccccc34)ccc2O1	active
CC(C)N1CC[C@@H](CN(C)Cc2ccc(Cl)cc2)Oc2c(NC(=O)c3ccncc3)cccc2C1=O	inactive
CCNC(=O)C[C@H]1CC[C@H](NC(=O)C2CCOCC2)[C@@H](CO)O1	inactive

Hi, sorry to bother you, what did the test record for O=C(C[C@H]1CC[C@@H]2[C@H](COC[C@@H](O)CN2S(=O)(=O)c2cccc(F)c2)O1)NCCCN1CCOCC1 ?
inactive

Same read-out for C[C@H](CO)N1C[C@H](C)[C@@H](CN(C)Cc2ccc(C(F)(F)F)cc2)OCCCC[C@H](C)Oc2ccc(NS(=O)(=O)c3ccc(F)cc3)cc2C1=O ?
inactive

###

Test system: HSkMC
assayText: cytotoxicity call (relative viability < 0.9)
conditionLabel: 10 µM
Among all 39,000 compounds or so, about 1,500 (3.8%) were called active. Shown is part of a subset that was picked to be rich in actives.
Select the matching outcome among True = active, False = inactive

Worked set:
molecule	testTarget	group
Cc1ccc(S(=O)(=O)Nc2ccc3c(c2)C(=O)N([C@H](C)CO)C[C@H](C)[C@@H](CN(C)C(=O)CCC(F)(F)F)OCCCC[C@@H](C)O3)cc1	HSkMC	False
COc1ccc(S(=O)(=O)Nc2ccc3c(c2)CC(=O)N([C@H](C)CO)C[C@@H](C)[C@@H](CN(C)S(=O)(=O)c2ccc(OC)cc2)O3)cc1	HSkMC	False
O=C([C@H]1[C@H](CO)[C@H]2Cn3c(cccc3=O)[C@H]2N1C(=O)C1CCCC1)N1CCOCC1	HSkMC	False
Cc1noc(C)c1S(=O)(=O)N(C)C[C@H]1OCCCC[C@@H](C)Oc2ccc(NS(C)(=O)=O)cc2C(=O)N([C@@H](C)CO)C[C@@H]1C	HSkMC	False

Hi, sorry to bother you, what did the test record for C=C1C(=O)OC2C1CCC(C)=CCCC1(C)OC21 (configuration not stated) ?
True

Same read-out for C[C@H]1CN([C@@H](C)CO)C(=O)c2cc(NS(C)(=O)=O)ccc2O[C@@H]1CN(C)S(=O)(=O)c1ccc(Cl)cc1 ?
False

Same read-out for C[C@H](CO)N1C[C@H](C)[C@H](CN(C)CC2CC2)Oc2ccc(NS(=O)(=O)c3cccs3)cc2C1=O ?
False

###

Test system: HSkMC
assayText: cytotoxicity call (relative viability < 0.9)
conditionLabel: 10 µM
In all, about 39,000 compounds went through this assay and about 1,500 (3.8%) were called active. The list comes from a sample in which actives are over-represented; it also holds close analogues and randomly drawn compounds.
experimentalEndpoint: cytotoxicity call

chemicalString	cytotoxicity call
C[C@@H]1CN([C@H](C)CO)C(=O)c2ccccc2-c2ccccc2CO[C@@H]1CN(C)C(=O)Nc1cccc(Cl)c1Cl	inactive
COc1ccc(CNC(=O)C[C@H]2C[C@H]3c4cc(NC(=O)NC5CCCC5)ccc4O[C@H]3[C@@H](CO)O2)cc1	inactive
C[C@@H]1CN([C@@H](C)CO)C(=O)c2cccc(NS(C)(=O)=O)c2O[C@@H]1CN(C)Cc1ccc2c(c1)OCO2	inactive
C[C@@H]1CN([C@@H](C)CO)C(=O)c2cccc(NS(=O)(=O)c3cn(C)cn3)c2O[C@H]1CN(C)S(=O)(=O)c1cccs1	inactive
COc1cc(C)c(C(=O)Oc2cc(C)c(C(=O)O)c(O)c2)c(O)c1	inactive
C[C@H](CO)N1C[C@H](C)[C@@H](CN(C)Cc2ccc(Cl)c(Cl)c2)OCCCC[C@H](C)Oc2ccc(NS(=O)(=O)c3ccc(F)cc3)cc2C1=O	inactive
C[C@@H]1CN([C@@H](C)CO)C(=O)c2cc(NC(=O)Nc3cccc4ccccc34)ccc2O[C@@H](C)CCCCO[C@@H]1CN(C)Cc1ccc(C(=O)O)cc1	inactive
Cc1ccccc1S(=O)(=O)N(C)C[C@@H]1Oc2ccc(NC(=O)Nc3cc(Cl)cc(Cl)c3)cc2CC(=O)N([C@@H](C)CO)C[C@@H]1C	active

Please look up its cytotoxicity call: C[C@H]1CN([C@@H](C)CO)C(=O)c2cc(NC(=O)CCCN(C)C)ccc2O[C@H]1CN(C)C(=O)NC1CCCCC1
inactive

Same read-out for C[C@H](CO)N1C[C@H](C)[C@@H](CN(C)C(=O)Nc2cccc3ccccc23)Oc2c(NC(=O)Nc3ccc(F)cc3)cccc2C1=O ?
inactive

Same read-out for CN1CCN(C(=O)C[C@@H]2CC[C@H]3[C@@H](COC[C@@H](O)CN3C(=O)C3CCCC3)O2)CC1 ?
inactive

Same read-out for Cc1ccc(S(=O)(=O)N(C)C[C@H]2OCCCC[C@@H](C)Oc3ccc(NC(=O)CCC(F)(F)F)cc3C(=O)N([C@H](C)CO)C[C@H]2C)cc1 ?
inactive

Same read-out for O=C(C[C@@H]1CC[C@H]2[C@@H](COC[C@H](O)CN2C(=O)c2ccncc2)O1)NC1CCC1 ?
inactive

Same read-out for C[C@@H]1CCCCO[C@@H](CN(C)Cc2ccc(Cl)c(Cl)c2)[C@H](C)CN([C@@H](C)CO)C(=O)c2cc(NS(=O)(=O)c3ccc(F)cc3)ccc2O1 ?
active

Same read-out for COc1ccc(NC(=O)N(C)C[C@H]2Oc3ccc(NC(=O)Nc4ccc(C(F)(F)F)cc4)cc3CC(=O)N([C@H](C)CO)C[C@H]2C)cc1 ?
inactive

Same read-out for COc1ccc(S(=O)(=O)N(C)C[C@H]2Oc3c(NC(=O)c4ccncc4)cccc3C(=O)N([C@@H](C)CO)C[C@H]2C)cc1 ?
inactive

Same read-out for C[C@@H]1CCCCO[C@H](CN(C)S(C)(=O)=O)[C@H](C)CN([C@@H](C)CO)C(=O)c2cc(NS(=O)(=O)c3cn(C)cn3)ccc2O1 ?
inactive

Same read-out for C[C@H]1CCCCO[C@H](CN(C)Cc2ccc(Cl)c(Cl)c2)[C@@H](C)CN([C@@H](C)CO)C(=O)c2cc(NS(=O)(=O)c3ccc(F)cc3)ccc2O1 ?
active

###

Tested on: HSkMC
assayText: cytotoxicity call (relative viability < 0.9)
conditionLabel: 10 µM
Screen size: about 39,000 compounds; about 1,500 (3.8%) were called active. This is one part of a sample in which actives are shown more often than they occur.
Select the matching outcome among 1 (yes) for active, 0 (no) for inactive

Hi, sorry to bother you, what did the test record for N[C@H](C(=O)O)[C@@H](OCc1ccccc1)C(=O)O ?
0 (no)

###

Test system: HSkMC
assayText: cytotoxicity call (relative viability < 0.9)
conditionLabel: 10 µM
The campaign covered roughly 39,000 compounds. About 1,500 (3.8%) were called active. Many of the other results were omitted from the sample, so actives are more common in it than they were.
Select the matching outcome among 1 (active), -1 (inactive)

Worked set:
chemicalString	testTarget	group
C[C@H]1CN([C@@H](C)CO)C(=O)Cc2cc(NC(=O)Nc3cccc(C(F)(F)F)c3)ccc2O[C@H]1CN(C)S(=O)(=O)c1ccc(Cl)cc1	HSkMC	1
C[C@H]1CN([C@@H](C)CO)C(=O)Cc2cc(NC(=O)Nc3cccc(C(F)(F)F)c3)ccc2O[C@H]1CN(C)S(=O)(=O)c1ccc(Oc2ccccc2)cc1	HSkMC	-1

Hi, sorry to bother you, what did the test record for C[C@@H]1CN([C@@H](C)CO)C(=O)Cc2cc(NC(=O)Nc3ccc(C(F)(F)F)cc3)ccc2O[C@@H]1CN(C)S(=O)(=O)c1ccc(Cl)cc1 ?
1

###

System: HSkMC (human skeletal muscle cells)
assayText: cytotoxicity call (relative viability < 0.9)
conditionLabel: 10 µM
About 1,500 (3.8%) of roughly 39,000 compounds were called active. This is one part of a sample in which actives are shown more often than they occur.
Select the matching outcome among TRUE for active, FALSE for inactive

Worked set:
chemicalString	group
CC(C)N1C[C@H](C)[C@@H](CN(C)Cc2ccc(Oc3ccccc3)cc2)Oc2c(NC(=O)C3CCNCC3)cccc2C1=O	TRUE
C[C@H](CO)N1C[C@H](C)[C@@H](CN(C)C(=O)Nc2cccc3ccccc23)Oc2c(NS(=O)(=O)c3ccc(F)cc3)cccc2C1=O	FALSE
Cc1[nH]c(/C=C2\C(=O)Nc3ccc(S(=O)(=O)Cc4c(Cl)cccc4Cl)cc32)c(C)c1C(=O)N1CCC[C@@H]1CN1CCCC1	TRUE
C[C@@H]1CN([C@@H](C)CO)C(=O)c2cccc(NS(=O)(=O)c3ccc(F)cc3)c2O[C@H]1CN(C)C(=O)Nc1cccc2ccccc12	TRUE

Hi, sorry to bother you, what did the test record for C[C@H]1CN([C@@H](C)CO)C(=O)c2cccc(NS(=O)(=O)c3ccc(F)cc3)c2O[C@@H]1CN(C)C(=O)Nc1cccc2ccccc12 ?
FALSE

Same read-out for C[C@@H]1CN([C@H](C)CO)C(=O)c2cccc(NS(=O)(=O)c3ccc(F)cc3)c2O[C@@H]1CN(C)C(=O)Nc1cccc2ccccc12 ?
FALSE

Same read-out for CC(C)NC(=O)N(C)C[C@@H]1OCCCC[C@H](C)Oc2ccc(NC(=O)C3CCCCC3)cc2C(=O)N([C@H](C)CO)C[C@@H]1C ?
FALSE
